We begin with a simple list: items and their reported Papp.
assay: in vitro; settings: PAMPA, PAMPA-BBB Pe(10^-6 cm/sec), Table S3: compounds exhibiting low PAMPA-BBB permeability
endpoint: Papp (×10⁻⁶ cm/s)

1. CNc1ccccc1C(=O)N1CCc2c([nH]c3ccccc23)C1=O :: 2.6
2. O=c1c(O)c(-c2ccc(O)cc2O)oc2cc(O)cc(O)c12 :: 1.5
3. CC1=C(/C=C/C(C)=C/C=C/C(C)=C/C=C/C=C(C)/C=C/C=C(C)/C=C/C2=C(C)CCCC2(C)C)C(C)(C)CCC1 :: 9.2
4. CC[C@H]1CN2CC[C@]3(C(=O)Nc4ccccc43)[C@@H]2C[C@@H]1/C(=C\OC)C(=O)OC :: 6.5
5. O=C(O)c1cc(N(Cc2ccccc2O)Cc2ccccc2O)ccc1O [L[…]] :: 5.9
